Listed here: items and their measured inhibition at 1.1 µM.
Biological target: Human PI3K beta (Homo sapiens, UniProt P42338)
Construct: His (N); host or cells: SF9 insect cells (baculovirus)
Sequence (P42338 whole entry): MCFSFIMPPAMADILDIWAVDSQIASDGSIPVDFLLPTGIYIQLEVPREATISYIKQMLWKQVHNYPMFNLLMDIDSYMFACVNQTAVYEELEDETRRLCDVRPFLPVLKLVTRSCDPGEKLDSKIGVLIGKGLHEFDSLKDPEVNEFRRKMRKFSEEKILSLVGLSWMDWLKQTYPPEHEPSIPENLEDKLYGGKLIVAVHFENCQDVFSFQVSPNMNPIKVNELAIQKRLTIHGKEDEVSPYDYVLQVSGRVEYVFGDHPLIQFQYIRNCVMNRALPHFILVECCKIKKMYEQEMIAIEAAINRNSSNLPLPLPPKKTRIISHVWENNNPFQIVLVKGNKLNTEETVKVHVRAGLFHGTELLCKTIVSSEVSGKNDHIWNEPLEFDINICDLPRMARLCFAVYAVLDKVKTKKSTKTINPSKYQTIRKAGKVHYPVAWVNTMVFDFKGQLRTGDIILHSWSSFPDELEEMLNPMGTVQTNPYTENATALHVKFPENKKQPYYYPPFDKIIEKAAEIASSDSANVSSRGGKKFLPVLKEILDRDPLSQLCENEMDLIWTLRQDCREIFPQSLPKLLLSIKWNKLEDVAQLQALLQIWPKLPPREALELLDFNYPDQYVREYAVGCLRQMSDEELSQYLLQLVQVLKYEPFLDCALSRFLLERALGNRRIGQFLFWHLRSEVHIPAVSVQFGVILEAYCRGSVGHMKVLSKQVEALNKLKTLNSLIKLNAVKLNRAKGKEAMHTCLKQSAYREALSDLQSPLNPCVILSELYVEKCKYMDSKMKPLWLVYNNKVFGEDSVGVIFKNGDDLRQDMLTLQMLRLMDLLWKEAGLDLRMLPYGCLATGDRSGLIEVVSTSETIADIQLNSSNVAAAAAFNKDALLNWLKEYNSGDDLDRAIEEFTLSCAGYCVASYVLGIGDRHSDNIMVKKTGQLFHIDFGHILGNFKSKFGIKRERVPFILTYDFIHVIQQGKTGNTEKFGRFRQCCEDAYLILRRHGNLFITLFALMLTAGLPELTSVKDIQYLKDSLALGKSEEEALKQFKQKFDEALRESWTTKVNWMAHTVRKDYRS
Sequence (P27986 whole entry partner): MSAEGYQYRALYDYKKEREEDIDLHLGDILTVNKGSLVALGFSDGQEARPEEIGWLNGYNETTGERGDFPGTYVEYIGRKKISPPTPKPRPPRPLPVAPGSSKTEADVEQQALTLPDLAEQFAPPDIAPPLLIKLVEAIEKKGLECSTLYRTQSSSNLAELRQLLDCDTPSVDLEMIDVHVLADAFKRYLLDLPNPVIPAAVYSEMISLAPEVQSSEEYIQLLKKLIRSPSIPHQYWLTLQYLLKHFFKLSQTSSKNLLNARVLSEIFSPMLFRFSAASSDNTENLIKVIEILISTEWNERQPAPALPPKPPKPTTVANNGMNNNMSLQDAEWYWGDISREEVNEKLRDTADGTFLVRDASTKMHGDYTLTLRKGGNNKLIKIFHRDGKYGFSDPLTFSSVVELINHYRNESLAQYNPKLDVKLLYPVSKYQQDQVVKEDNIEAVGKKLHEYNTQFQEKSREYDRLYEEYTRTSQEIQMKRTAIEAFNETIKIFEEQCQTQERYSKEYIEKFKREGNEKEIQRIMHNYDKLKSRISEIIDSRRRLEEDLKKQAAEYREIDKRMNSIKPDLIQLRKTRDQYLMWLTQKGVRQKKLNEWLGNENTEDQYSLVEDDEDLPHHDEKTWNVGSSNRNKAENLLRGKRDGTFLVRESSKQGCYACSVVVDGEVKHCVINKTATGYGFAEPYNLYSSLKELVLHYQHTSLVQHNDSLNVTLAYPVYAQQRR
Test: Human PI3K beta enzyme assay (HTRF)
Assay type: biochemical
Conditions: concentration not given; b1387 states 1.1 μM for PI3K α and β; read-out: p110 beta Percent Inhibition
State the answer as a number, implicitly in %.

O=C(O)c1sc(N2CCOCC2)nc1Cc1ccc2ccncc2c1 : 103
OC(c1ccc(Cl)cc1Cl)c1cc(-c2ccncc2)sc1-c1nnc[nH]1 (stereo not shown) : 101
CN(C)C(c1ccc(Cl)cc1)c1cc(-c2ccnc(N)c2)sc1-c1nnc[nH]1 (stereo not shown) : 97

// next item, inhibition at 1.1 µM requested
Problem: Report inhibition at 1.1 µM from Human PI3K beta (Homo sapiens, UniProt P42338) testing of Clc1ccc(C(c2cc(-c3ccnc(Cl)c3)sc2-c2nnc[nH]2)N2CCC2)cc1 (stereo not shown)
Result: 96
